Measured values drawn from patent US6727264B1 for this set.

// reported Ki for each item listed
Target: rat MCH-1 (Rattus norvegicus)
Sequence (P97639 whole entry): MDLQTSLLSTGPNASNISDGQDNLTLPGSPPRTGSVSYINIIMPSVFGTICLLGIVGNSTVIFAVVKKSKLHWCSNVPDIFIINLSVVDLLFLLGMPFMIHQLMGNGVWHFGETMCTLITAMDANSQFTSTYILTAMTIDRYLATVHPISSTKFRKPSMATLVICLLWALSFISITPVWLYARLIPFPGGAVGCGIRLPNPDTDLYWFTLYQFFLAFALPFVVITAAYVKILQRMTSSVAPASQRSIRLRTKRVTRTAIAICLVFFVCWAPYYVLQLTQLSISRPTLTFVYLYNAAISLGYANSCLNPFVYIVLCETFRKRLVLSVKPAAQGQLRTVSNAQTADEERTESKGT
Experiment: Radioligand binding assay at cloned rat MCH1 receptor ([3H] Compound A)
Design: host or cells: Peak rapid 293 (Peakr293) cells, transient calcium phosphate transfection, membranes
Details: cloned rat MCH1 receptor; 0.08 nM [3H] Compound A; Peakr293 cell membranes; read-out: Ki (nM) rMCH1
assay-readout: Ki (nM)

{"compound": "CC(C)C(=O)Nc1cccc(C2CCN(CCCNC(=O)c3cccnc3Oc3ccc(Cl)cc3)CC2)c1 [Example 641]", "number": 14.2}
{"compound": "Cc1ccc(-n2ccc3c(CN4CCC(c5cccc(NC(=O)C(C)C)c5)CC4)cccc32)cc1C [Example 862]", "number": 438}
{"compound": "O=C(Nc1cccc(C2CCN(CCCCCSc3ccccc3)CC2)c1)C1CC1 [Example 587]", "number": 46.9}
{"compound": "CC(C)C(=O)Nc1cccc(C2CCN(Cc3cn(-c4ccccc4)c4cc(C(F)(F)F)ccc34)CC2)c1 [Example 508]", "number": 8.5}
{"compound": "Cc1ccc2[nH]c(-c3ccccc3)c(CCN3CCC(c4cccc(NC(=O)C(C)C)c4)CC3)c2c1 [Example 399]", "number": 31.9}
{"compound": "COc1ccc(-n2ccc3cc(CN4CCC(c5cccc(NC(=O)C(C)C)c5)CC4)ccc32)cc1 [Example 833]", "number": 27.5}
{"compound": "COc1cccc2c(CN3CCC(c4cccc(NC(=O)C(C)C)c4)CC3)c[nH]c12 [Example 510]", "number": 305}
{"compound": "CC(C)C(=O)Nc1cccc(C2CCN(CC[C@H](NS(=O)(=O)c3cc(Cl)ccc3Cl)c3ccccc3)CC2)c1 [Example 600]", "number": 41.3}
{"compound": "CC(C)C(=O)Nc1cccc(C2CCN(CCCCCCNC(=O)Nc3ccc4ccccc4c3)CC2)c1 [Example 636]", "number": 40.8}
{"compound": "CC(C)C(=O)Nc1cccc(C2CCN(CCCNC(=O)N3C(=O)OC[C@H]3c3ccc(F)c(F)c3)CC2)c1 [Example 573]", "number": 114}
{"compound": "CC(C)C(=O)Nc1cccc(C2CCN(CCCCCC(Oc3cc(C(F)(F)F)ccc3F)c3ccc(F)cc3)CC2)c1 (stereo not drawn) [Example 911]", "number": 7.6}
{"compound": "Cc1onc(-c2ccccc2Cl)c1C(=O)NCCCCCN1CCC(c2cccc(NC(=O)C(C)C)c2)CC1 [Example 681]", "number": 23.9}
{"compound": "CC(C)C(=O)Nc1cccc(C2CCN(CCCCC(=O)c3ccc(C(F)(F)F)cc3)CC2)c1 [Example 674]", "number": 39.6}
{"compound": "Cc1ccc2[nH]cc(CN3CCC(c4cccc(NC(=O)C(C)C)c4)CC3)c2c1 [Example 445]", "number": 486}
{"compound": "CC(C)C(=O)Nc1cccc(C2CCN(CCCc3c(-c4ccc(I)cc4)[nH]c4c3ccc3ccccc34)CC2)c1 [Example 749]", "number": 23.2}
{"compound": "CC(C)C(=O)Nc1cccc(C2CCN(CCCc3c(-c4ccc(Cl)cc4)[nH]c4ccc(OC(F)(F)F)cc34)CC2)c1 [Example 703]", "number": 16.6}
{"compound": "Cc1ccc(-n2cc(CN3CCC(c4ccc(NC(=O)C(C)C)cc4)CC3)c3ccccc32)cc1 [Example 422]", "number": 173}
{"compound": "CC(C)C(=O)Nc1cccc(C2CCN(CCCCCC(Oc3ccc(F)cc3)c3ccc(Cl)cc3)CC2)c1 (stereo not drawn) [Example 902]", "number": 11}
{"compound": "CC(C)C(=O)Nc1cccc(C2CCN(CCCc3c(-c4ccc([N+](=O)[O-])cc4)[nH]c4c3ccc3ccccc34)CC2)c1 [Example 777]", "number": 8.5}
{"compound": "COc1ccc2[nH]c(-c3cccc([N+](=O)[O-])c3)c(CCCN3CCC(c4cccc(NC(=O)C(C)C)c4)CC3)c2c1 [Example 770]", "number": 12.7}
{"compound": "COC(=O)c1ccc2c(CN3CCC(c4cccc(NC(=O)C(C)C)c4)CC3)cn(-c3ccccc3)c2c1 [Example 506]", "number": 2.5}
{"compound": "CC(C)C(=O)Nc1cccc(C2CCN(CCCCC(O)c3cccc(F)c3)CC2)c1 (stereo not drawn) [Example 815]", "number": 127}
{"compound": "CC(C)C(=O)Nc1cccc(C2CCN(Cc3ccc4c(ccn4-c4cccc5ccccc45)c3)CC2)c1 [Example 853]", "number": 48}
{"compound": "Cc1[nH]c2ccccc2c1CN1CCC(c2cccc(NC(=O)C(C)C)c2)CC1 [Example 430]", "number": 647}
{"compound": "Cc1cccc2c(CCCN3CCC(c4cccc(NC(=O)C(C)C)c4)CC3)c(-c3ccc(Cl)cc3)[nH]c12 [Example 719]", "number": 14.9}
{"compound": "CC(C)C(=O)Nc1cccc(C2CCN(CCCCCCNC(=O)c3scc(S(=O)(=O)C(C)C)c3Cl)CC2)c1 [Example 630]", "number": 202}
{"compound": "CC(C)C(=O)Nc1cccc(C2CCN(CCCCC(=O)N3C(=O)OC[C@H]3c3ccc(F)c(F)c3)CC2)c1 [Example 572]", "number": 181}
{"compound": "CC(C)C(=O)Nc1cccc(C2CCN(Cc3ccc4c(ccn4-c4ccccc4-c4ccccc4)c3)CC2)c1 [Example 846]", "number": 18.4}
{"compound": "CC(C)C(=O)Nc1cccc(C2CCN(CCCCC(O)c3cccc(Cl)c3)CC2)c1 (stereo not drawn) [Example 816]", "number": 89.6}
{"compound": "CC(C)C(=O)Nc1cccc(C2CCN(CCNC(=O)Nc3ccc(-c4ccccc4)cc3)CC2)c1 [Example 647]", "number": 81.6}
